Target: Gal(a1-3)Gal(b1-4)GlcNAc(b1-6)GalNAc
Experiment: glycan array binding signal (z-score within array); higher = stronger binding
Settings: glycan notation: IUPAC condensed, linker removed
About 410 targets per protein were measured; listed, in parts, are those with the strongest signals and a random draw of the rest.
property-name: glycan array binding signal (z-score)

1. MGL6A (Homo sapiens) (protein) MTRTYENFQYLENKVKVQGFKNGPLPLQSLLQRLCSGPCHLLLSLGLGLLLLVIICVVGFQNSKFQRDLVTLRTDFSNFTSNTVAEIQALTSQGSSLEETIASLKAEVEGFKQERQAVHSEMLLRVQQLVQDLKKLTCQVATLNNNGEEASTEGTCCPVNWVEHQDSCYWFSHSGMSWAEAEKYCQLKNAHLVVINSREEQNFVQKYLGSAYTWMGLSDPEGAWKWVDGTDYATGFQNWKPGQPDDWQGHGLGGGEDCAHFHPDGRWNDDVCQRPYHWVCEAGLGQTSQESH | 4.16
2. SP15308F-bth-333-19-333 (Bacteroides thetaiotaomicron) (protein) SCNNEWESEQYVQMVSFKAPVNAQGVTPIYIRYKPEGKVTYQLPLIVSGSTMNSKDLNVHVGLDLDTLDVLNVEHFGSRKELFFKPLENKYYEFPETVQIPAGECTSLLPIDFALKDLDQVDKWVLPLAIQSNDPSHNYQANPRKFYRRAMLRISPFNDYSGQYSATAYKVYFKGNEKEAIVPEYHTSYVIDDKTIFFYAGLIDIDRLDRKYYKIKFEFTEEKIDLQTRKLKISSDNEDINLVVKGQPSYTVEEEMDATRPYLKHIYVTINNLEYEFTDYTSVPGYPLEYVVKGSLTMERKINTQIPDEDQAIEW | -0.976
3. HPA (Helix pomatia), Q2F1K8 (protein) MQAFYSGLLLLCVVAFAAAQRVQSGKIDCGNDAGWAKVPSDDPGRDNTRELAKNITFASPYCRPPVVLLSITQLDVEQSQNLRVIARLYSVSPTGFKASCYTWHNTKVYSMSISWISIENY | -0.173
4. Gal 7 (Homo sapiens) (protein) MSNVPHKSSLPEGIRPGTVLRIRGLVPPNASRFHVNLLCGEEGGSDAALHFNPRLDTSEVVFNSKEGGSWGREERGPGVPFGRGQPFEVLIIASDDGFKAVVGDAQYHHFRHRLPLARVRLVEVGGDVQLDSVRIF | -0.147

The reported numbers originate from the supplement of paper PMC8728848.
